Reference source for all entries: PubChem BioAssay AID1963974

Tested on: 648629-189-R-J1-PDC spheroids with HUVEC/MSC, viability;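 note: spheroids exposed to agents for seven days before reading; percent of vehicle control luminescence where 100% = DMSO treated spheroids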
Protocol: Anticancer human tumor 648629-189-R-J1-PDC patient-derived bladder carcinoma cell line growth inhibition [PI3K]
Condition Description: second compound 0.01 µM; first compound 1 µM; stronger effect = lower value
Measured Endpoint: viability, T/C

Sample records with viability, T/C:
Compound | Experimental Target | viability, T/C
CC1(C)CCC(CN2CCN(c3ccc(C(=O)NS(=O)(=O)c4ccc(NCC5CCOCC5)c([N+](=O)[O-])c4)c(Oc4cnc5[nH]ccc5c4)c3)CC2)=C(c2ccc(Cl)cc2)C1 + COc1c(OCCCN2CCOCC2)ccc2c3n(c(=NC(=O)c4cnc(N)nc4)nc12)CCN3 | 648629-189-R-J1-PDC spheroids with HUVEC/MSC, viability | 91.2%
CNC(=O)c1ccc(N2C(=S)N(c3ccc(C#N)c(C(F)(F)F)c3)C(=O)C2(C)C)cc1F + COc1c(OCCCN2CCOCC2)ccc2c3n(c(=NC(=O)c4cnc(N)nc4)nc12)CCN3 | 648629-189-R-J1-PDC spheroids with HUVEC/MSC, viability | 103%
CCCS(=O)(=O)Nc1ccc(F)c(C(=O)c2c[nH]c3ncc(-c4ccc(Cl)cc4)cc23)c1F + COc1c(OCCCN2CCOCC2)ccc2c3n(c(=NC(=O)c4cnc(N)nc4)nc12)CCN3 | 648629-189-R-J1-PDC spheroids with HUVEC/MSC, viability | 96.4%

For every record below, what is its viability, T/C?
1. CNC(=O)c1ccc(N2C(=S)N(c3ccc(C#N)c(C(F)(F)F)c3)C(=O)C2(C)C)cc1F + CC(Nc1ccc2c(c1)OCCn1cc(N3C(=O)OCC3C(F)F)nc1-2)C(N)=O
2. C=CC(=O)N1CCN(c2nc(=O)n(-c3c(C)ccnc3C(C)C)c3nc(-c4c(O)cccc4F)c(F)cc23)C(C)C1 (stereo not given) + COc1c(OCCCN2CCOCC2)ccc2c3n(c(=NC(=O)c4cnc(N)nc4)nc12)CCN3

["98.1%", "113%"]
